The reported measurements were obtained from paper PMC6219668.

system: panel of nearly 500 cancer cell lines; experiment: Cancer Cell Line Encyclopedia profiling, 3-day CellTiter-Glo; assay type: cell-based; details: Homo sapiens, KYSE-180

{"MOLECULE": "CN(C)C(=O)c1cc2cnc(Nc3ccc(N4CCNCC4)cn3)nc2n1C1CCCC1 [Ribociclib]", "EC50 / nM": 507}

---

test system: panel of nearly 500 cancer cell lines; test: Cancer Cell Line Encyclopedia profiling, 3-day CellTiter-Glo; format: cell-based; conditions: COV504
Below, each entry is listed alongside its reported EC50.

{"COMPOUND": "CN(C)C(=O)c1cc2cnc(Nc3ccc(N4CCNCC4)cn3)nc2n1C1CCCC1", "EC50": "> 8 µM"}
{"COMPOUND": "CC(=O)c1c(C)c2cnc(Nc3ccc(N4CCNCC4)cn3)nc2n(C2CCCC2)c1=O [Palbociclib, reference compound]", "EC50": "> 8 µM"}

---

test system: panel of nearly 500 cancer cell lines; assay: Cancer Cell Line Encyclopedia profiling, 3-day CellTiter-Glo; format: cell-based; settings: Homo sapiens, HPAF-II
PROPERTY: EC50

{"SMILES_REPRESENTATION": "CN(C)C(=O)c1cc2cnc(Nc3ccc(N4CCNCC4)cn3)nc2n1C1CCCC1", "READING": "> 8 µM"}

---

Below, each entry is listed alongside its reported pEC50.
tested on: panel of nearly 500 cancer cell lines; assay: Cancer Cell Line Encyclopedia profiling, 3-day CellTiter-Glo; format: cell-based; settings: Hs766T
pEC50: −log10 of the molar value.
PROPERTY: pEC50

{"COMPOUND": "CC(=O)c1c(C)c2cnc(Nc3ccc(N4CCNCC4)cn3)nc2n(C2CCCC2)c1=O [Palbociclib, reference compound]", "VALUE_OPERATOR": "=", "READING": 5.82}
{"COMPOUND": "CN(C)C(=O)c1cc2cnc(Nc3ccc(N4CCNCC4)cn3)nc2n1C1CCCC1", "VALUE_OPERATOR": "<", "READING": 5.10}

---

test system: KELLY; experiment: cells; format: cell-based; settings: 72 h

{"SMILES_REPRESENTATION": "CN(C)C(=O)c1cc2cnc(Nc3ccc(N4CCNCC4)cn3)nc2n1C1CCCC1", "IC50 / nM": 300}

---

tested on: panel of nearly 500 cancer cell lines; experiment: Cancer Cell Line Encyclopedia profiling, 3-day CellTiter-Glo; type: cell-based; settings: PaTu 8902
pIC50: −log10 of the molar value.
PROPERTY: pIC50

{"COMPOUND": "CN(C)C(=O)c1cc2cnc(Nc3ccc(N4CCNCC4)cn3)nc2n1C1CCCC1 [Ribociclib]", "ASSAYED_SYSTEM": "panel of nearly 500 cancer cell lines", "READING": "< 5.10"}

---

system: panel of nearly 500 cancer cell lines; assay: Cancer Cell Line Encyclopedia profiling, 3-day CellTiter-Glo; type: cell-based; details: Homo sapiens, UACC-62

{"SMILES_REPRESENTATION": "CN(C)C(=O)c1cc2cnc(Nc3ccc(N4CCNCC4)cn3)nc2n1C1CCCC1", "IC50": "> 8 µM"}

---

tested on: panel of nearly 500 cancer cell lines; test: Cancer Cell Line Encyclopedia profiling, 3-day CellTiter-Glo; format: cell-based; details: Homo sapiens, SW780
PROPERTY: EC50 (nM)

{"MOLECULE": "CC(=O)c1c(C)c2cnc(Nc3ccc(N4CCNCC4)cn3)nc2n(C2CCCC2)c1=O [Palbociclib, reference compound]", "PROPERTY": "EC50", "UNITS": "nM", "READING": 832}
{"MOLECULE": "CN(C)C(=O)c1cc2cnc(Nc3ccc(N4CCNCC4)cn3)nc2n1C1CCCC1", "PROPERTY": "EC50", "UNITS": "nM", "READING": 159}

---

system: panel of nearly 500 cancer cell lines; experiment: Cancer Cell Line Encyclopedia profiling, 3-day CellTiter-Glo; format: cell-based; conditions: ncih2452 (pleura); read-out: IC50

{"SMILES_REPRESENTATION": "CC(=O)c1c(C)c2cnc(Nc3ccc(N4CCNCC4)cn3)nc2n(C2CCCC2)c1=O", "IC50": "> 8 µM"}

---

system: panel of nearly 500 cancer cell lines; assay: Cancer Cell Line Encyclopedia profiling, 3-day CellTiter-Glo; type: cell-based; settings: hut78 (haematopoietic_and_lymphoid_tissue); read-out: IC50

{"MOLECULE": "CC(=O)c1c(C)c2cnc(Nc3ccc(N4CCNCC4)cn3)nc2n(C2CCCC2)c1=O [Palbociblib]", "IC50": "> 8 µM"}

---

Below, each entry is listed alongside its reported EC50.
system: panel of nearly 500 cancer cell lines; assay: Cancer Cell Line Encyclopedia profiling, 3-day CellTiter-Glo; assay type: cell-based; conditions: PK-59
PROPERTY: EC50 (µM)

{"COMPOUND": "CN(C)C(=O)c1cc2cnc(Nc3ccc(N4CCNCC4)cn3)nc2n1C1CCCC1", "PROPERTY": "EC50", "VALUE_OPERATOR": ">", "READING": 8}
{"COMPOUND": "CC(=O)c1c(C)c2cnc(Nc3ccc(N4CCNCC4)cn3)nc2n(C2CCCC2)c1=O [Palbociclib, reference compound]", "PROPERTY": "EC50", "VALUE_OPERATOR": "=", "READING": 1.51}

---

test system: panel of nearly 500 cancer cell lines; test: Cancer Cell Line Encyclopedia profiling, 3-day CellTiter-Glo; type: cell-based; conditions: Homo sapiens, HDQ-P1
PROPERTY: EC50 (nM)

{"COMPOUND": "CN(C)C(=O)c1cc2cnc(Nc3ccc(N4CCNCC4)cn3)nc2n1C1CCCC1 [Ribociclib]", "ASSAYED_SYSTEM": "panel of nearly 500 cancer cell lines", "PROPERTY": "EC50", "UNITS": "nM", "READING": 506}

---

system: panel of nearly 500 cancer cell lines; assay: Cancer Cell Line Encyclopedia profiling, 3-day CellTiter-Glo; type: cell-based; conditions: Homo sapiens, NCI-H1581
Below, each entry is listed alongside its reported EC50.

{"COMPOUND": "CN(C)C(=O)c1cc2cnc(Nc3ccc(N4CCNCC4)cn3)nc2n1C1CCCC1 [Ribociclib]", "EC50": "> 8 µM"}
{"COMPOUND": "CC(=O)c1c(C)c2cnc(Nc3ccc(N4CCNCC4)cn3)nc2n(C2CCCC2)c1=O [Palbociclib, reference compound]", "EC50": "> 8 µM"}

---

test system: panel of nearly 500 cancer cell lines; assay: Cancer Cell Line Encyclopedia profiling, 3-day CellTiter-Glo; type: cell-based; conditions: Homo sapiens, KMS-12-BM
PROPERTY: IC50

{"SMILES_REPRESENTATION": "CN(C)C(=O)c1cc2cnc(Nc3ccc(N4CCNCC4)cn3)nc2n1C1CCCC1", "PROPERTY": "IC50", "READING": "> 8 µM"}

---

tested on: panel of nearly 500 cancer cell lines; experiment: Cancer Cell Line Encyclopedia profiling, 3-day CellTiter-Glo; format: cell-based; details: Homo sapiens, EBC-1
pEC50: −log10 of the molar value.
Below, each entry is listed alongside its reported pEC50.

{"COMPOUND": "CN(C)C(=O)c1cc2cnc(Nc3ccc(N4CCNCC4)cn3)nc2n1C1CCCC1", "pEC50": 6.36}
{"COMPOUND": "CC(=O)c1c(C)c2cnc(Nc3ccc(N4CCNCC4)cn3)nc2n(C2CCCC2)c1=O [Palbociclib, reference compound]", "pEC50": 6.62}

---

test system: panel of nearly 500 cancer cell lines; test: Cancer Cell Line Encyclopedia profiling, 3-day CellTiter-Glo; format: cell-based; conditions: Homo sapiens, WM793
PROPERTY: EC50

{"SMILES_REPRESENTATION": "CN(C)C(=O)c1cc2cnc(Nc3ccc(N4CCNCC4)cn3)nc2n1C1CCCC1", "READING": "> 8 µM"}

---

system: panel of nearly 500 cancer cell lines; assay: Cancer Cell Line Encyclopedia profiling, 3-day CellTiter-Glo; assay type: cell-based; settings: eb2 (haematopoietic_and_lymphoid_tissue); read-out: IC50

{"MOLECULE": "CC(=O)c1c(C)c2cnc(Nc3ccc(N4CCNCC4)cn3)nc2n(C2CCCC2)c1=O [Palbociblib]", "IC50": "> 8 µM"}

---

Below, each entry is listed alongside its reported EC50.
test system: panel of nearly 500 cancer cell lines; experiment: Cancer Cell Line Encyclopedia profiling, 3-day CellTiter-Glo; format: cell-based; details: Homo sapiens, MKN-45

{"MOLECULE": "CC(=O)c1c(C)c2cnc(Nc3ccc(N4CCNCC4)cn3)nc2n(C2CCCC2)c1=O [Palbociclib, reference compound]", "UNITS": "nM", "VALUE_OPERATOR": ">", "EC50": 8000}
{"MOLECULE": "CN(C)C(=O)c1cc2cnc(Nc3ccc(N4CCNCC4)cn3)nc2n1C1CCCC1 [Ribociclib]", "UNITS": "nM", "VALUE_OPERATOR": "=", "EC50": 230}
